- Measurement Protocol: yeast display, Sf9 membrane polyspecificity reagent, FACS + sequencing; frameworks hold sequencing errors
Outcome Measure: polyreactivity (PSR sort gate)

// solved cases for polyreactivity (PSR sort gate) follow
QVQLGESCGGLVQAGGSLRLSCAASGPIFRSYAMGWYRQAPGKERELVARITSGGSTNYADSVKGRFTISRDNAKNTVYLQMNSLKPEDSAVYYCARDWGKSEYDYWGQGTQVTVSS; high polyreactivity
QVQLVESGGGLVQAGGSLRLSCAASGSTFVYNAMGWYRQAPGKERELVAAISRRGGSTYYADSVKGRFTISRDNAKNTVYLQMNSLKPEDTAVYYCATDRVQDSYYWGQGTQVTVSS; high polyreactivity
QVQLVESGGGLVQAGGSLRLSCAASGRIFPRYAMGWYRQAPGKERELVAAITSSGTSTYYADSVKGRFTISRDNAKNTVYLQMNSLKPEDTAVYYCNAVKYARWGYDYWGQGTQVTVSS; high polyreactivity
QVQLVESGGGLVQAGGSLRLICAASGSTFFANAMGWYRPAPGKERELVAVITYSGGSTYYADSVKGRFTISRYNAKNTVYLQMNSLKPEDTAVDYCAAKSYFRPYSYSYSYWGQGTQVTVSS; high polyreactivity
QVQLVESGGGLVQAGGRLRLSCAASGRIFPDNTMGWYRQAPGKERELVAVITYSGGSTYYADSVKGRFTISRDNAKNTVYLQMNSLKPEDTAVYYCAARDYYIWFAEVDYWGQGTQVTVSS; low polyreactivity
QVQLVESGGGLVQAGGSLRLSCAASGRIFYTNAMGWYRQAPGKERELVATISLRGGSTYYADSVKGRFTISRDNAKNTVYLQLNSLKPEDTAVYDCAARFWSVYSGNPTYPKYYWGQGTQVTVSS; high polyreactivity
QVQLVESGGGLVQAGGSLRLSCAASGRIFTRNAMGWYRPAPGKERELVAAISSRGGSTYYADSVKGRFTISRDNAKNTVYLQMNSLKPEDTAVYYCAAGYWATYDYWGQGTQVTVSS; high polyreactivity
QVQLVESGGGLVQAGGSLRLSCAASGITFLDYAMRWYRQAPGKERELVAAITKSVGSTYYADSVKGRFTISRDNAKNTVYLQMNSLKPEDTAVYYCAADPDSGQVPFDYWGQGTQVTVSS; low polyreactivity

q: Which polyreactivity (PSR sort gate) is reported for this sequence? `QVQLVESGGGLVQAGGSLRLSCAASGRTFRPYAMGWYRQAPGKEREFVARITWSGGTTYYADSVKGRFTISRDNAKNTVYLQMNSLKPEDTAVYYCAARVSRQTPLISYNYWGQGTQVTVSS`
a: low polyreactivity

q: # lookup: polyreactivity (PSR sort gate) of `QVQLVESGGGLVQAGGSLRLSCAASGSIFVVNAMGWYRQAPGKERELVAAIRLSGGSTYYADSVKGRFTISRDNAKNTVYLQMNSLKPEDTAVYDCAARYRELRTEYYYWGQGTQVTVSS`
a: high polyreactivity

q: Which polyreactivity (PSR sort gate) value is on record for `QVQLVASGGGLVQAGGSLRLSCAASGRTSWYYAMGWYRHAPGKERELVAAITASGGSTYADSVKGRFTISRDNAKNTVYLQMNSLKPEDTAVYYCAAERPYSRVGYYYWGQGTQVTVSS` ?
a: high polyreactivity
